The reported numbers originate from patent US20110318827A1.

Target: somatostatin receptor SST-5 (CHO-SST-5 (mb)) (Homo sapiens (Human), UniProt P35346 1-364)
Sequence (P35346 whole entry, form in doubt): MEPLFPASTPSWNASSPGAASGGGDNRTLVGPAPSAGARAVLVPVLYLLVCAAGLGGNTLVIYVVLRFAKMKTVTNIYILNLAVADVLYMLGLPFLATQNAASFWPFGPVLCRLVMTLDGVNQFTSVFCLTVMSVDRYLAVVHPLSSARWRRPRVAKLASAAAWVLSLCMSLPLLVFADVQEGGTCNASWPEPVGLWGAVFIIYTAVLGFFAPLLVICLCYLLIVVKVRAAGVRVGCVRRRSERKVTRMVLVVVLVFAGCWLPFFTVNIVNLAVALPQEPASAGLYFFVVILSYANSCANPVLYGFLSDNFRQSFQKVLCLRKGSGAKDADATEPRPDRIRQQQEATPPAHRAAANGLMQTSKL
Assay: radioligand competition binding, CHO-SST-5 (mb)
metric: pKi
The value called pKi is obtained by taking minus log10 of the concentration in mol/L.

Please look up its pKi: TGRRRGGFCYWKVCT ([TcO]3+ core chelated by the N-terminal HTGRRR tag; free N-terminus; the RC-121 part carries D-Phe, D-Trp, a C-terminal amide and the preserved disulfide bridge) [TcO[HTGRRRGG-RC-121]]
7.52
